System: OVCAR-4 ovarian
Assay: NCI-60 one-dose screen, 48 h (100 = growth as untreated, 0 = no growth, -100 = all killed)
Conditions: 10 µM unless noted
The panel holds about 83,000 compounds, 20% with a hit somewhere; the sample as a whole holds those more often.
value.kind: growth (%)
Unit % implied. Number only.

Below, each entry is followed by its recorded growth result.
Cc1nc(NN)c([N+](=O)[O-])c(NN)n1 ... 114
COc1ccc(-c2cc(=O)oc3c4c(ccc23)OCN(Cc2ccc(F)cc2)C4)cc1 ... 35.2
OC[C@@H](O)[C@@H](O)CO ... 101
CCN1CCN(c2ccc(Nc3ncc4ccc5ncn(C(C)C)c5c4n3)nc2)CC1 ... 5.12
Cc1ccc(S(=O)(=O)N2CCc3ccc(O)c4c3C2Cc2ccc3c(c2-4)OCO3)cc1 (configuration not stated) ... 45.6

*Q* Query growth on OVCAR-4 ovarian for Cc1ccc(C2SCC(=O)N2NC(=O)c2[nH]c3ccc(F)cc3c2-c2ccccc2)cc1 (configuration not stated)
*A* 79.7

*Q* Lookup: growth / OVCAR-4 ovarian / Cc1ccc(N=c2nc3sc4c(C)ccc(C)c4n3c(N)c2C#N)cc1
*A* 88.9

*Q* Form field - read-out: growth; system: OVCAR-4 ovarian; submitted item: COc1ccc(/C=N/OCC(O)CNCc2ccccc2)cc1OC1CCCC1 (configuration not stated)
*A* 91.2

*Q* Form field: growth recorded for O=C(O)c1ccccc1Oc1cc(-c2ccco2)nc(OCCBr)n1 with OVCAR-4 ovarian (enter value)
*A* 98.5

*Q* Under OVCAR-4 ovarian: growth value of O=c1[nH]c(-c2ccccn2)nc2sc3c(c12)CCCCCC3 ?
*A* 28

*Q* Field: growth (OVCAR-4 ovarian). Entry: Cc1ccc(S(=O)(=O)N(c2ccc(Cl)cc2)c2ccc(Br)cc2C(=O)O)cc1
*A* 116

*Q* # value lookup — system OVCAR-4 ovarian, readout growth, item CC(C)(C)[Si](C)(C)OC1[C@@H](COC(=O)NC(=O)CCl)O[C@@H](n2cnc3c(N)ncnc32)[C@H]1O[Si](C)(C)C(C)(C)C (some centres not stated)
*A* 36.9

* * *

Tested on: UACC-257 melanoma
Experiment: NCI-60 one-dose screen, 48 h (100 = growth as untreated, 0 = no growth, -100 = all killed)
Details: 10 µM unless noted
Compounds without any hit were thinned out: in the full panel of roughly 83,000, 20% have a hit. Calls of active or inactive are those of the source. The calls were made as follows: active = growth percent below 10; inactive = the rest.
Parameter: growth. Scope: all listed entries.

Clc1cccc(Cl)c1Nc1ccc2nnc(-c3ccncc3)n2n1 ... 97.8% (inactive)
N#Cc1c(-c2cccc(F)c2)cc(-c2ccc(Br)s2)[nH]c1=O ... 87.4% (inactive)
N#C/C(=C\c1ccc[nH]1)c1cc2ccccc2[nH]1 ... 69.9% (inactive)

*Q* Query (compound): O=C1C(Cl)=C(NCCCN2CCOCC2)C(=O)c2ccccc21 ; field requested: growth
*A* 73.3% (inactive)

*Q* # get_value(readout='growth', item= Nc1nc(-c2ccnc(Cl)c2)nn1-c1nc2ccccc2s1 )
*A* 113% (inactive)

*Q* Using the record for NC(=O)c1cccc(-n2ccc3cc(NC(=O)Nc4ccc(Cl)c(Cl)c4)ccc32)n1 , report its growth.
*A* 89.9% (inactive)

*Q* What value of growth has been reported for the following compound? COc1ccc(C(=O)COc2cccc(/C=C3\CSc4ccc(C)cc4C3=O)c2)cc1
*A* 95.5% (inactive)

*Q* Quick one: growth for CN1CCc2c(c3ccccc3c3ccccc23)C1 ?
*A* 37.6% (inactive)

*Q* Which growth is listed for O=C(CCc1nnc2sc(/C=C\c3ccccc3)nn12)c1nc2ccccc2[nH]1 ?
*A* 94.9% (inactive)

* * *

Tested on: HS 578T breast
Assay: NCI-60 one-dose screen, 48 h (100 = growth as untreated, 0 = no growth, -100 = all killed)
Details: 10 µM unless noted
This is part of a sample that, as a whole, favours compounds with a hit. Of some 83,000 tested, about 20% had one in any assay.
# binarize growth: threshold 40% inclusive, high side criterion met, low side criterion not met

Consider the worked cases shown below.
Cc1cccc2c(=O)c3c(sc12)c(NCCNCCO)nc1ccccc13 ... criterion met
O=C(Nc1ccccc1)Oc1cccc2cccnc12 ... criterion met
CN1CCN(c2ccc3nc(-c4ccc5nc(-c6ccc(C(F)(F)F)cc6)[nH]c5c4)[nH]c3c2)CC1 ... criterion not met
COc1cc(/C=C/C(=O)C(=Cc2ccc(F)c(F)c2)C(=O)/C=C/c2ccc(O)c(OC)c2)ccc1O ... criterion not met

*Q* hey, is growth for this one >= 40%? O=c1ccc2ccccc2o1
*A* criterion met

* * *

Tested on: MOLT-4 leukemia
Experiment: NCI-60 one-dose screen, 48 h
Settings: 10 µM unless noted
The panel holds about 83,000 compounds, 20% with a hit somewhere; the sample as a whole holds those more often. Active and inactive are the calls of the source. How the source made its calls: active means growth percent below 10; inactive means the rest.
Respond using exactly one of the listed classes: active, inactive

Nc1cc2[nH]c(=O)c3ccccc3c2cc1Br ... inactive
COc1ccc(C(=O)C2=CC(=O)C(=O)C2)cc1OC ... inactive
CN1CCc2c(Sc3ccc(C(=O)NO)cc3)c3ccccc3n2C1 ... active
Oc1ccccc1/C=N/Nc1nc2ccccc2s1 ... inactive
Cc1ccc(S(=O)(=O)N2CCc3ccc(O)c4c3C2CCc2ccccc2-4)cc1 (configuration not stated) ... inactive

*Q* Which outcome was assigned to Cc1nc(NC(=O)COc2cccc(/C=C3\COc4ccccc4C3=O)c2)sc1C in this test?
*A* active

*Q* // param item: COc1cc(Cn2cc(F)c(=O)[nH]c2=O)cc(OC)c1 ; yields the recorded call
*A* inactive

*Q* For O=C1N/C(=C\c2ccccc2)c2ncccc21 , which call appears in the assay record?
*A* inactive

*Q* Can you look up the reported call for C[C@]1(CO)C[C@@H](O)C[C@]2(C)[C@@H]1CC[C@@]13C[C@@H]4[C@@H](C[C@H]12)[C@]4(C)C3 for me?
*A* inactive

*Q* Dear colleague, could you share the recorded outcome for Cn1c2ccccc2c2nn(Cc3ccccc3)c(=O)nc21 when you have a moment?
*A* inactive

*Q* Kindly provide the recorded test outcome for the following compound: O=C(CCCCCCC(=O)Nc1ccc2c(c1)/C(=C/c1ccc[nH]1)C(=O)N2)NO
*A* active

*Q* I'd appreciate the recorded outcome for NC(=O)c1c(Br)c(Br)c(Br)c(Br)c1C(=O)O (tested in a mixture with another compound) from this test.
*A* inactive

*Q* Which outcome was entered for the compound CCN(CC)c1ccc2c(c1)OS(=O)(=O)N=C2 in this test?
*A* inactive

*Q* Dear colleague, could you share the recorded outcome for Clc1ccc2c(c1)C[C@H]1C[C@@H](c3cccs3)N2O1 when you have a moment?
*A* inactive

*Q* What did this assay record as the result for N#Cc1c(-c2cccc(F)c2)cc(-c2ccc(Br)s2)[nH]c1=O ?
*A* inactive

*Q* Recorded call for COc1cc(/C=N/NC(=O)c2cnn3c2NC(c2ccccc2)C3)cc(OC)c1OC (configuration not stated) ?
*A* inactive

*Q* Hey, what did the test say about O=c1c2cc(F)ccc2oc2c(NCCNCCO)nc3ccccc3c12 ?
*A* active

*Q* Kindly provide the recorded test outcome for the following compound: CCSc1nnc2c3cc(Br)ccc3n(C)c2n1
*A* inactive

*Q* For Cc1ccc2c(c1)c(Sc1ccc(C(=O)NO)cc1)c1n2CN(C)CC1 , what call appears in the results of this test?
*A* active

*Q* Please share the test call associated with Fc1ccccc1Nc1ccc2nnc(-c3ccncc3)n2n1 .
*A* inactive

*Q* For O=C(c1ccccc1)C(Br)C(Br)c1cccc([N+](=O)[O-])c1 (configuration not stated) , what call appears in the results of this test?
*A* active

* * *

Test system: SF-295 CNS
Assay: NCI-60 one-dose screen, 48 h
Settings: 10 µM unless noted
Compounds without any hit were thinned out: in the full panel of roughly 83,000, 20% have a hit. Activity calls are given as the source filed them. How the source made its calls: active means growth percent below 10; inactive means the rest.
Pick from label 1 = active, label 0 = inactive when you respond.

Recorded results for 3 molecules are shown here.
Cc1cc(C)c(S(=O)O)c(C)c1 ... label 0
COc1ccc(-c2csc3c2-n2cccc2C3=O)cc1O ... label 1
CCCCc1ccc(C(O)(CCN2CC3CCC(CC3)C2)c2ccccc2)cc1 (centres undefined) ... label 0

Alright, here's another molecule for you.
*Q* Would you mind telling me which call this test gave O=C1/C(=C/c2ccc([N+](=O)[O-])cc2)Oc2ccc(O)cc21 ?
*A* label 0

* * *

System: UACC-62 melanoma
Assay: NCI-60 one-dose screen, 48 h
Conditions: 10 µM unless noted
The panel holds about 83,000 compounds, 20% with a hit somewhere; the sample as a whole holds those more often. Activity calls are given as the source filed them. The calls were made as follows: active = growth percent below 10; inactive = the rest.
Answer with one of the outcomes active, inactive

Reference set (6 entries):
CCCCCCCC/C=C\CCCCCCCCOc1cccc(CC(=O)NCC[N+]2(C)CCOCC2)c1 ... inactive
Oc1ccc(Cl)cc1CNc1nc2ccccc2[nH]1 ... active
COc1cc2cc(Oc3ccc(NC(=O)Nc4cccc(C(F)(F)F)c4)cc3)c(C)nc2cc1OCCN1CCCCC1 ... active
COC(=O)c1c2c(c(C)[n+]([O-])c1C)C(=O)C=C(NCc1ccc(F)cc1)C2=O ... active
FC(F)(F)Oc1ccc2c(c1)C[C@H]1C[C@@H](c3ccoc3)N2O1 ... inactive
COc1ccc2c(c1)c(=O)oc1c(C)c(OCC(C)=O)ccc12 ... inactive

// switching to the query compound
*Q* Which outcome was entered for the compound CN1CCC(OC2c3ccccc3CCc3ccccc32)CC1 in this test?
*A* inactive
